# Test system: anti-CD28 scFv
# Sequence (as listed by the source): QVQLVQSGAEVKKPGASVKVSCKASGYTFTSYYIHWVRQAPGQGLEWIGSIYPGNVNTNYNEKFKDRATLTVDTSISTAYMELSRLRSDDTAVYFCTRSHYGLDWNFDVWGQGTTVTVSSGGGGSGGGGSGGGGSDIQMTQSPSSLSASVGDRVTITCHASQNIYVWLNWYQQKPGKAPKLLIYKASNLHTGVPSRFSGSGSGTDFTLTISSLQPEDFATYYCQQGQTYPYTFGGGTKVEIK
# measurement_description: Panning ELISA of clonal phage, anti-CD28 scFv, with or without CD28 soluble protein (Peptide-9 library)
# Type: binding
# condition_set: Peptide-9 library, background (no anti-CD28 scFv)
Where no end group is shown, it is not given here.

[
  {
    "substance": "Phage-51 (MDWCPMDLWDYCFN; not fully specified; cysteine pairing not given here)",
    "Background signal": 0.071
  },
  {
    "substance": "Phage-437 (MDWCPVDRWADCFN)",
    "Background signal": 0.071
  },
  {
    "substance": "Phage-446 (MDWCPRDRWDDCFN)",
    "Background signal": 0.069
  },
  {
    "substance": "Phage-121 (MDWCPRDLWHVCFF)",
    "Background signal": 0.068
  },
  {
    "substance": "Phage-426 (MFLCPSAMWNRCFY)",
    "Background signal": 0.069
  }
]

====

# assayed_system: anti-CD28 Fab (SEQ ID NOs: 696, 697)
# Sequence (as listed by the source): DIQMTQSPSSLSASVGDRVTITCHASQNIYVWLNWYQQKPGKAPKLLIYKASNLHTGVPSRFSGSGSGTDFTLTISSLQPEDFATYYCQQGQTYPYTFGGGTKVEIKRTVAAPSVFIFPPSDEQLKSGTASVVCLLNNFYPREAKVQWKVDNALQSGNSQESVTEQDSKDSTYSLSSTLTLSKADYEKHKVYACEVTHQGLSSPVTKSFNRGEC
# Sequence (as listed by the source): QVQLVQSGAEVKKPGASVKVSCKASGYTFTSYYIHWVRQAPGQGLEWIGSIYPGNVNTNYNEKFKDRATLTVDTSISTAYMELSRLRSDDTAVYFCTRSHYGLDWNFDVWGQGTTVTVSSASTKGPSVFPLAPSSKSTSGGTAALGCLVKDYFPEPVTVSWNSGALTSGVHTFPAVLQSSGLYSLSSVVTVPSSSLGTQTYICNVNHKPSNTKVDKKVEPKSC
# measurement_description: anti-CD28 Fab binding to peptides, ELISA
# condition_set: Table 24; anti-CD28 Fab
pEC50: −log10 of the molar value.

[
  {
    "sequence_record": "WCWDYKLWVPMTCP [Peptide-85]",
    "pEC50": "< 6.00"
  },
  {
    "sequence_record": "DCWWMFESYPGRCI [Peptide-86]",
    "pEC50": "< 6.00"
  },
  {
    "sequence_record": "WICDKSGSIMLCRA [Peptide-91]",
    "pEC50": "< 6.00"
  },
  {
    "sequence_record": "YCAGHSPINIGKCL [Peptide-84]",
    "pEC50": 6.47
  },
  {
    "sequence_record": "WCWDYREWVPMTCP [Peptide-82]",
    "pEC50": "< 6.00"
  },
  {
    "sequence_record": "WECLKYTEANACTY [Peptide-76]",
    "pEC50": "< 6.00"
  },
  {
    "sequence_record": "DCPWLSGFSRPLLC [Peptide-93]",
    "pEC50": "< 6.00"
  },
  {
    "sequence_record": "PDCHTILFKPWCVR [Peptide-90]",
    "pEC50": "< 6.00"
  },
  {
    "sequence_record": "MDWCPRDLWVHCFA [Peptide-41]",
    "pEC50": 6.31
  },
  {
    "sequence_record": "YWYCSPSIVRCVLV [Peptide-89]",
    "pEC50": "< 6.00"
  },
  {
    "sequence_record": "WCWYYREWVPMTCP [Peptide-88]",
    "pEC50": "< 6.00"
  },
  {
    "sequence_record": "YWSCFQIPFTCFYF [Peptide-75]",
    "pEC50": "< 6.00"
  }
]

====

Listed here: items and their measured EC50.
# assayed_system: PSMA Fab (SEQ ID NOs: 19, 20)
# Sequence (as listed by the source): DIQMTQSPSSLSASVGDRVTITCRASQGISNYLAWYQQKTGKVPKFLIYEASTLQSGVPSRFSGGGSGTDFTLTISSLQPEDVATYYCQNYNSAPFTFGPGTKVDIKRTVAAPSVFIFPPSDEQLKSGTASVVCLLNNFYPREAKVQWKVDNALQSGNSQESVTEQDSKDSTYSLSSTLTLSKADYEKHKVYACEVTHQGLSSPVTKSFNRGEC
# Sequence (as listed by the source): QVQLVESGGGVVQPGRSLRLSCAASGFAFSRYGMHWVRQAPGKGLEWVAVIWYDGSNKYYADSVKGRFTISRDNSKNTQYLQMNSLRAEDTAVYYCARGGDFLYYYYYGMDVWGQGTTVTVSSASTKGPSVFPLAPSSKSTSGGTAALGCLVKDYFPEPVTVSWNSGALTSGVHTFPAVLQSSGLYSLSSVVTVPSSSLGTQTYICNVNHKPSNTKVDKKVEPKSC
# measurement_description: PSMA Fab binding to peptides, ELISA
# condition_set: Table 38; PSMA Fab binding to biotinylated peptide, ELISA

[
  {
    "sequence_record": "SCGWLRGEEFGWWC [Peptide-190]",
    "assayed_system": "PSMA Fab (SEQ ID NOs: 19, 20)",
    "EC50": "> 3000 nM"
  },
  {
    "sequence_record": "FVCWTFGEHIKVCR [Peptide-186]",
    "assayed_system": "PSMA Fab (SEQ ID NOs: 19, 20)",
    "EC50": "> 3000 nM"
  },
  {
    "sequence_record": "LMKWCTPRWMCAAE [Peptide-179]",
    "assayed_system": "PSMA Fab (SEQ ID NOs: 19, 20)",
    "EC50": "5.9 nM"
  },
  {
    "sequence_record": "SIPCIPRDWLCPIK [Peptide-182]",
    "assayed_system": "PSMA Fab (SEQ ID NOs: 19, 20)",
    "EC50": "> 3000 nM"
  }
]

====

# System: PSMA Fab
# measurement_description: Phage binding ELISA, PSMA Fab, with or without PSMA antigen (peptide-179 and peptide-180 libraries)
# condition_set: peptide-180 library clonal phage; background (no Fab)
Where no end group is shown, it is not given here.
Lab note: anything with Phage binding ELISA Background signal at or over 0.06 counts as condition met; the rest go in condition not met.

[
  {
    "substance": "Phage-2795 (FEKWCTPQWMCNSM)",
    "assayed_system": "PSMA Fab",
    "classification": "condition not met"
  },
  {
    "substance": "Phage-2849 (VFPICKPSWMCVGM; not fully specified; cysteine pairing not given here)",
    "assayed_system": "PSMA Fab",
    "classification": "condition met"
  },
  {
    "substance": "Phage-2848 (VMTVCKPAWMCTGF; not fully specified; cysteine pairing not given here)",
    "assayed_system": "PSMA Fab",
    "classification": "condition met"
  },
  {
    "substance": "Phage-2814 (PMKWCTPPWMCSYS)",
    "assayed_system": "PSMA Fab",
    "classification": "condition met"
  },
  {
    "substance": "Phage-2793 (VTNWCTPPWMCEML)",
    "assayed_system": "PSMA Fab",
    "classification": "condition met"
  },
  {
    "substance": "Phage-2843 (MLPICKPDWMCAGF; not fully specified; cysteine pairing not given here)",
    "assayed_system": "PSMA Fab",
    "classification": "condition met"
  },
  {
    "substance": "Phage-2854 (VHIMCKPAWMCLGF; not fully specified; cysteine pairing not given here)",
    "assayed_system": "PSMA Fab",
    "classification": "condition met"
  },
  {
    "substance": "Phage-2851 (DMRLCVPEWMCLGL; not fully specified; cysteine pairing not given here)",
    "assayed_system": "PSMA Fab",
    "classification": "condition met"
  },
  {
    "substance": "Phage-2812 (VGPWCIPDWMCDVV)",
    "assayed_system": "PSMA Fab",
    "classification": "condition not met"
  },
  {
    "substance": "Phage-2791 (WEKWCTPSWMCSGI)",
    "assayed_system": "PSMA Fab",
    "classification": "condition not met"
  },
  {
    "substance": "Phage-2790 (VMKWCTPSWMCAEA)",
    "assayed_system": "PSMA Fab",
    "classification": "condition met"
  },
  {
    "substance": "Phage-2839 (DSHWCMPVWMCMGL; not fully specified; cysteine pairing not given here)",
    "assayed_system": "PSMA Fab",
    "classification": "condition met"
  },
  {
    "substance": "Phage-2794 (TEKWCIPQWMCVRT)",
    "assayed_system": "PSMA Fab",
    "classification": "condition not met"
  },
  {
    "substance": "Phage-2859 (WEFVCKPEWMCTGF; not fully specified; cysteine pairing not given here)",
    "assayed_system": "PSMA Fab",
    "classification": "condition not met"
  },
  {
    "substance": "Phage-2862 (TGAYCVPQWMCSGF; not fully specified; cysteine pairing not given here)",
    "assayed_system": "PSMA Fab",
    "classification": "condition met"
  },
  {
    "substance": "Phage-2845 (WDMLCRPAWMCEGF; not fully specified; cysteine pairing not given here)",
    "assayed_system": "PSMA Fab",
    "classification": "condition met"
  },
  {
    "substance": "Phage-2803 (VKHVCMPEWMCYWS)",
    "assayed_system": "PSMA Fab",
    "classification": "condition met"
  },
  {
    "substance": "Phage-2861 (WDRLCIPAWMCSGF; not fully specified; cysteine pairing not given here)",
    "assayed_system": "PSMA Fab",
    "classification": "condition met"
  },
  {
    "substance": "Phage-2850 (VNIRCEPAWMCMGF; not fully specified; cysteine pairing not given here)",
    "assayed_system": "PSMA Fab",
    "classification": "condition met"
  }
]

====

# Tested on: anti-CD28 scFv
# measurement_description: Panning ELISA of clonal phage, anti-CD28 scFv, with or without CD28 soluble protein (Peptide-9 library)
# Format: binding
# condition_set: background (no anti-CD28 scFv)
Listed here: items and their measured Background signal.

[
  {
    "substance": "Phage-351 (MDWCPMNLWHECFA)",
    "Background signal": 0.080
  },
  {
    "substance": "Phage-352 (MDWCPIHLWYECFN)",
    "Background signal": 0.080
  },
  {
    "substance": "Phage-373 (MDWCPRILWSDCFN)",
    "Background signal": 0.082
  },
  {
    "substance": "Phage-305 (MDWCPRDLWTECFS)",
    "Background signal": 0.080
  }
]
